Target: Small conductance calcium-activated potassium channel (Rattus norvegicus) (UniProt P70604+P70606+P70605)
Assay: Displacement of [125I]apamin from calcium-activated potassium (SK) channels of rat cortex at 10 uM
measurement_type: Displacement (%)

Some solved cases for reference:
| compound | unit_abbrev | Displacement |
| --- | --- | --- |
| COc1ccc(C[C@H]2c3cc(OC)c(OC)cc3CC[N+]2(C)C)cc1OC.[I-] [LAUDANOSINE METHIODIDE] | % | 57 |
| COc1ccc(CC2c3c(cccc3OC)CC[N+]2(C)C)cc1OC (configuration not stated) | % | 9 |
| COc1ccc(CC2c3cccc(Cl)c3CCN2C)cc1OC (configuration not stated) | % | 8 |
| COc1ccc(CC2c3c(cccc3OC)CCN2C)cc1OC (configuration not stated) | % | 1 |
| COc1ccc(CC2c3cccc(Br)c3CCN2C)cc1OC (configuration not stated) | % | 1 |

I = COc1ccc(CC2c3c(Cl)cccc3CC[N+]2(C)C)cc1OC.[I-] (configuration not stated)
II = COc1ccc(CC2c3sc(C)cc3CCN2C)cc1OC (configuration not stated)
III = COc1ccc(CC2c3c(C)cccc3CCN2C)cc1OC (configuration not stated)
IV = COc1ccc(CC2c3c(Cl)cccc3CCN2C)cc1OC (configuration not stated)
V = CCc1cccc2c1C(Cc1ccc(OC)c(OC)c1)[N+](C)(C)CC2.[I-] (configuration not stated)
Inquiry: Which order do these items take when sorted by rising Displacement? List them. Hello, could you send the labels back in the order asked? Thank you.
Reply text: II, IV, III, I, V

a = COc1ccc2c(c1OC)C(=O)OC2C1c2c(cc3c(c2OC)OCO3)CC[N+]1(C)C.[I-] (configuration not stated)
b = COc1ccc(CC2c3c(Br)cccc3CCN2C)cc1OC (configuration not stated)
Inquiry: Higher Displacement: a or b ? Give the label under which the chosen entry appears.
Reply text: a

I = COc1ccc(CC2c3cccc(Cl)c3CC[N+]2(C)C)cc1OC (configuration not stated)
II = CCc1cccc2c1C(Cc1ccc(OC)c(OC)c1)N(C)CC2 (configuration not stated)
III = COc1ccc(CC2c3sccc3CC[N+]2(C)C)cc1OC (configuration not stated)
Inquiry: Put the items in sequence by Displacement, from largest down. Provide the labels, sequenced as the question asks.
Reply text: I, III, II

* * *

Molecular target: Small conductance calcium-activated potassium channel (Rattus norvegicus, UniProt P70604+P70606+P70605)
Experiment: Inhibition of [125I]apamin binding to calcium-activated potassium (SK) channel of rat cortex
measurement_type: Ki (µM)

| molecule | Ki [µM] |
| --- | --- |
| COc1ccc(CC2c3c(Cl)cccc3CC[N+]2(C)C)cc1OC.[I-] (centres undefined) | 9.3 |
| COc1ccc(CC2c3cccc(Br)c3CC[N+]2(C)C)cc1OC (centres undefined) | 4.9 |
| COc1ccc2c(c1OC)C(=O)OC2C1c2c(cc3c(c2OC)OCO3)CC[N+]1(C)C.[I-] (centres undefined) | 3.6 |
| CCc1cccc2c1C(Cc1ccc(OC)c(OC)c1)[N+](C)(C)CC2.[I-] (centres undefined) | 2.6 |
| COc1ccc(CC2c3cccc(Cl)c3CC[N+]2(C)C)cc1OC (centres undefined) | 7.6 |

P = COc1ccc(CC2c3c(cccc3C(C)C)CC[N+]2(C)C)cc1OC.[I-] (centres undefined)
Q = COc1ccc(CC2c3c(Br)cccc3CC[N+]2(C)C)cc1OC.[I-] (centres undefined)
Inquiry: Given P and given Q , which shows the smaller recorded Ki? # respond with the chosen item's label
Reply text: P

A = COc1ccc(CC2c3c(C)cccc3CC[N+]2(C)C)cc1OC.[I-] (centres undefined)
B = COc1ccc(C[C@H]2c3cc(OC)c(OC)cc3CC[N+]2(C)C)cc1OC.[I-] [LAUDANOSINE METHIODIDE]
Inquiry: Of the pair A and B , name the member with the lesser recorded Ki. Pick one and reply with its label.
Reply text: B

* * *

Target: Small conductance calcium-activated potassium channel (Rattus norvegicus, UniProt P70604+P70606+P70605)
Experiment: Inhibition of [125I]apamin binding to calcium-activated potassium (SK) channel of rat cortex
measurement_type: IC50 (µM)

| compound | measured_result |
| --- | --- |
| COc1ccc(C[C@H]2c3cc(OC)c(OC)cc3CC[N+]2(C)C)cc1OC.[I-] [LAUDANOSINE METHIODIDE] | 8.7 |
| COc1ccc(CC2c3cccc(Br)c3CC[N+]2(C)C)cc1OC (centres undefined) | 25.4 |
| COc1ccc(CC2c3c(Br)cccc3CC[N+]2(C)C)cc1OC.[I-] (centres undefined) | 35.2 |
| COc1ccc(CC2c3c(Cl)cccc3CC[N+]2(C)C)cc1OC.[I-] (centres undefined) | 50 |
| COc1ccc(CC2c3c(C)cccc3CC[N+]2(C)C)cc1OC.[I-] (centres undefined) | 28.4 |
| CCc1cccc2c1C(Cc1ccc(OC)c(OC)c1)[N+](C)(C)CC2.[I-] (centres undefined) | 13.6 |

P = COc1ccc2c(c1OC)C(=O)OC2C1c2c(cc3c(c2OC)OCO3)CC[N+]1(C)C.[I-] (centres undefined)
Q = COc1ccc(CC2c3cccc(Cl)c3CC[N+]2(C)C)cc1OC (centres undefined)
R = COc1ccc(CC2c3c(cccc3C(C)C)CC[N+]2(C)C)cc1OC.[I-] (centres undefined)
Inquiry: Hey, can you sort those compounds up there by IC50, smallest first? # format: label list in the order the request specifies
Reply text: R, P, Q

* * *

Biological target: Small conductance calcium-activated potassium channel (Rattus norvegicus) (UniProt P70604+P70606+P70605)
Test: Displacement of [125I]apamin from calcium-activated potassium (SK) channels of rat cortex at 10 uM
measurement_type: Displacement (%)

| molecule | measurement_type | measured_result |
| --- | --- | --- |
| COc1ccc(CC2c3cccc(Br)c3CC[N+]2(C)C)cc1OC (configuration not stated) | Displacement | 29 |
| COc1ccc(CC2c3c(C)cccc3CC[N+]2(C)C)cc1OC.[I-] (configuration not stated) | Displacement | 24 |

A = COc1ccc(CC2c3c(Br)cccc3CC[N+]2(C)C)cc1OC.[I-] (configuration not stated)
B = COc1ccc(CC2c3sccc3CCN2C)cc1OC (configuration not stated)
C = COc1ccc(CC2c3sc(C)cc3CC[N+]2(C)C)cc1OC (configuration not stated)
D = COc1ccc(CC2c3c(cccc3C(C)C)CC[N+]2(C)C)cc1OC.[I-] (configuration not stated)
E = COc1ccc(CC2c3c(cccc3C(C)C)CCN2C)cc1OC (configuration not stated)
Inquiry: Rank entries according to their Displacement, from the largest number down. List the labels according to the requested ordering.
Reply text: D, A, C, E, B
(D: 55%, A: 26%, C: 18%, E: 10%, B: 2%)
